Values compiled from PubChem BioAssay (Tox21).

Assay: qHTS assay to identify small molecule agonists of the TGF-beta/Smad signaling pathway - cell viability counter screen (AID 1346829); also: nearly all actives have a fitted effect of over 45% in size
Conditions: SBE-bla HEK293T viability, CellTiter-Glo luminescence, 5 h; series mostly up to 76.8 µM
Text: National Center for Advancing Translational Sciences [NCATS] NIH Chemical Genomics Center [NCGC] U.S. Environmental Protection Agency [EPA] National Institutes of Environmental Health Sciences [NIEHS] National Toxicology Program [NTP] U.S. Food and Drug Administration [FDA] Transforming growth factor beta (TGF-beta) superfamily consists of a large number of structurally related dimeric proteins that act as hormones or local mediators in regulating a wide range of biological functions. […]
Results filed as inconclusive are left out. Activity calls are given as the source filed them. Calls follow the shape of the dose curve; as a rule, active = well fitted cell-killing curve with a large enough effect in the repeat runs; inconclusive = weak or mixed curves, or effect the other way; inactive = flat fitted curve, though single readings scatter.
Classes used: yes (active), no (inactive)

CSSC | no
CCOP(=S)(NC(C)C)Oc1ccccc1C(=O)OC(C)C (configuration not stated) | no
CCCCC/C=C\C/C=C\C/C=C\C/C=C\CCCC(=O)NCC(=O)O | no
CN1[C@@H]2CC[C@H]1CC(O)C2 (some centres not stated) | no
O=C(N[C@H]1N=C(c2ccccc2F)c2cccc3c2N(CC3)C1=O)c1cc2ccccc2[nH]1 | no
C=C(C)C(=O)[O][Sn]([CH2]CCC)([CH2]CCC)[CH2]CCC | yes
O=C(NC(=O)c1ccccc1Cl)Nc1ccc(OC(F)(F)F)cc1 | no
O=[N+]([O-])c1ccc(CCl)cc1 | no
CC(Cc1ccc(OCC(=O)O)cc1)NCC(O)c1csc(C(F)(F)F)n1 (configuration not stated) | no
CCOP(=O)(Sc1ccccc1)Sc1ccccc1 | no
O=S1OCC2C(CO1)C1(Cl)C(Cl)=C(Cl)C2(Cl)C1(Cl)Cl (configuration not stated) | no
Oc1ccc2[nH]cc(CCCCN3CC=C(c4ccccc4)CC3)c2c1 | no
